Would you kindly list melting point for each of these molecules?

{"Molecule": "C[C@H](Nc1nc(Nc2cccc(NS(C)(=O)=O)c2)nc2[nH]cnc12)c1ccccc1", "melting point": "136 to 139 °C"}
{"Molecule": "COC(=O)c1ccc(CC(=O)c2ccccc2Cl)cc1", "melting point": "40 to 42 °C"}
{"Molecule": "Cc1cc(-c2cccc(Cl)c2)nn2c(C)nnc12", "melting point": "194 to 196 °C"}
{"Molecule": "Clc1cc(Cl)c2c(c1)C[C@@H]1CCc3ccccc3[C@@H]1O2 (relative stereo)", "melting point": "141 to 144 °C"}
{"Molecule": "Cc1ccccc1-c1cn(C)cc(-c2ccccc2Cl)c1=O", "melting point": "87 to 91 °C"}
{"Molecule": "COc1c(C#Cc2ccccc2)c(=O)c2ccc(Cl)cc2[nH]c1=O", "melting point": "204 to 205 °C"}
{"Molecule": "N#CCCc1cccc([N+](=O)[O-])c1", "melting point": "86 to 88 °C"}
{"Molecule": "Cc1ccc(S(=O)(=O)OCC2COc3ccc(N)c(C=NO)c3O2)cc1 (stereo not given)", "melting point": "164 to 166 °C"}
{"Molecule": "Cc1cc2cn[nH]c2c(C(=O)NC2(C3CC3)CC2)c1NC(=O)c1cc(OCC(F)(F)F)nn1-c1ncccc1Cl", "melting point": "240 to 242 °C"}
{"Molecule": "Nc1nc2cc(S(=O)(=O)c3ccccc3)ccc2s1", "melting point": "278 to 280 °C"}

Batch of 7 molecules: report melting point for each.
1. Cc1c(C(F)(C(F)(F)F)C(F)(F)F)c(-c2ccc(S(N)(=O)=O)cc2)c2n1CCC2
2. COc1ccc2c(c1)cc(-c1ccccc1)n2-c1ccc(O)cc1
3. CC(C)c1nc(CCCO)n(Cc2ccncc2)c1Sc1cc(Cl)cc(Cl)c1
4. CCCS(=O)(=O)c1ccccc1S(=O)(=O)Cl
5. O=c1c(Br)cc(Cl)cn1Cc1ccccc1
6. CCCC(CC)c1nc(C)nc2c1c(C)c(C)n2-c1c(C)cc(C)cc1C (stereo not given)
7. C=Cc1cc(C)cc(C)c1CC(=O)N(O)C1(C(=O)OC)CCN(OC)CC1

**Result**
1: 200 °C; 2: 200 to 201 °C; 3: 106 to 107 °C; 4: 74 to 77 °C; 5: 108 to 110 °C; 6: 100 to 102 °C; 7: 177 to 179 °C

Batch of 3 molecules: report melting point for each.
1. CC[C@@H](O)CC(=O)N[C@H]1CC[C@H](CCN2CCN(c3nccc4c3OCC4)CC2)CC1
2. COC(=O)[C@@]12CN(Cc3ccccc3)C[C@@H]1[C@@](O)(c1ccc(OC)cc1)CC[C@H]2c1ccccc1 (racemic)
3. COc1ccc2c(C(=S)N(C)CC(N)=O)c(F)ccc2c1C(F)(F)F

**Result**
146 °C
136 °C
222 to 224 °C

###

Quantity Measured: melting point

{"Compound": "CCNS(=O)(=O)c1cccc(NC(=O)c2cnn3c(C(F)F)cc(-c4ccc(C(F)(F)F)c(OCC)c4)nc23)c1", "Test Value": "222 °C"}
{"Compound": "CC(=O)OCC1OC(n2ccc(=O)[nH]c2=O)C(OC(C)=O)C1OC(C)=O (stereo not given)", "Test Value": "129 to 130 °C"}
{"Compound": "C=C=C[C@]12CCC(=O)C=C1C(=O)C[C@@H]1[C@@H]2CC[C@]2(C)C(=O)CC[C@@H]12", "Test Value": "187 to 190 °C"}
{"Compound": "Cc1ccc(S(=O)(=S)OCCCCCCCCCCOS(=O)(=S)c2ccc(C)cc2)cc1 (stereo not given)", "Test Value": "76 to 82 °C"}

Batch of 5 compounds: report melting point for each.
1. CC(CN(C(C)C)C(C)C)N1C(=O)/C(=N/NC(N)=O)c2ccccc21 (stereo not given)
2. COC(=O)CCCCc1ccc(C(=O)Cc2ccccc2)cc1
3. CN1C(=O)C(C(=O)NCC2CCC(C(=O)O)CC2)S(=O)(=O)c2ccccc21 (stereo not given)
4. COC(=O)c1c(CBr)cccc1CBr
5. NC(=O)C1CCC(=O)N1CC#CCN1CCCCC1 (stereo not given)

**Result**
1. 195 to 197 °C
2. 53.5 to 54 °C
3. 203 to 204 °C
4. 76 to 79 °C
5. 143 to 145 °C

Batch of 6 compounds: report melting point for each.
1. CC(C)(O)C(=O)c1ccc(OCC2CO2)cc1 (stereo not given)
2. COc1cc(N)c(Cl)cc1C(=O)NN1CCN(C)CC1
3. CC(C)CCN1C(=O)C(NC(=O)Oc2cccc(N(C)C)c2)C(=O)N(CC23CC4CC(CC(C4)C2)C3)c2ccccc21 (stereo not given)
4. CN(C)CC(C)(C)CNc1ncc2cc(-c3c(Cl)cccc3Cl)c(NC(=O)NC(C)(C)C)nc2n1
5. COc1ccc2[nH]c(C)c(C(C)=O)c2c1
6. Nc1cccc(C#CC=Cc2cccc(N)c2)c1

**Result**
["54 °C", "220 °C", "172 to 173 °C", "161 to 170 °C", "156 to 158 °C", "105 to 106 °C"]

Batch of 5 compounds: report melting point for each.
1. COc1cc(OCc2cn(-c3ccc(C(F)(F)F)cn3)nc2C)ccc1CCC(=O)O
2. CCOC(=O)C1=C(C)NC(C)=C(C(=O)OCC)C1c1ccc(OCCCN(C)C)c(OC)c1
3. COc1cc(C)c2c(c1)c1c(n2Cc2ccc(Cl)cc2)C(CC(=O)O)CCC1 (stereo not given)
4. CC1Cc2cc(S(N)(=O)=O)cc(C(=O)NCC3CCCN3C)c2O1 (stereo not given)
5. COC(=O)[C@@H]1OCN(NS(=O)(=O)c2ccc([N+](=O)[O-])cc2)[C@H]1c1ccccc1

**Result**
1: 158 to 159 °C; 2: 62 °C; 3: 188 °C; 4: 187 to 189 °C; 5: 160 to 162 °C

###

Would you kindly list melting point for each of these compounds?

{"Compound": "COc1ccc(N2C(=O)N(c3cccc(C(N)=O)c3)c3nc(Nc4ccccc4)ncc3C2C)cc1 (stereo not given)", "Quantity Measured": "melting point", "Test Value": "268 to 273 °C"}
{"Compound": "NC(=O)C1(c2ccccc2)OC(=O)c2ccccc21 (stereo not given)", "Quantity Measured": "melting point", "Test Value": "225 to 227 °C"}
{"Compound": "CC(=O)Oc1ccc2nc(NC(=O)Nc3ccccc3)sc2c1", "Quantity Measured": "melting point", "Test Value": "210 to 213 °C"}
{"Compound": "CNC(=S)C1=C(O)C2(CCOCC2)Oc2ccc([N+](=O)[O-])cc21", "Quantity Measured": "melting point", "Test Value": "217 to 218 °C"}

// next entry
What the record says about COC(=O)c1sc(-c2ccc(C)cc2)cc1NC(C)=O : melting point is 127 to 129 °C

###

Would you kindly list melting point for each of these compounds?

Worked examples follow.
{"Compound": "COc1ccc(-c2[nH]nc3c2C(=O)c2c(NC(=O)Cc4ccc(Cl)c(Cl)c4)cccc2-3)cc1", "Test Value": "299 °C"}
{"Compound": "CCCCCCCCCCCCCCC1CC1C(=O)O (centres undefined)", "Test Value": "62 to 64 °C"}
{"Compound": "CCc1c(-c2ccc(OCc3ccccc3)cc2)c2c(C(=O)N(C)C)c(C(=O)O)c3cccc1n32", "Test Value": "236 to 238 °C"}
{"Compound": "O=C1NC(=O)C(c2cn(CCCO)c3ccc(F)cc23)=C1c1cccc(NCC(O)CO)c1 (centres undefined)", "Test Value": "118 to 125 °C"}
{"Compound": "Oc1ccc2c(-c3ccc(F)cc3F)noc2c1Cl", "Test Value": "186 to 190 °C"}
{"Compound": "O=c1[nH]c2cc(C(F)(F)F)c([N+](=O)[O-])cc2n1-c1cc(Cl)cc(Br)c1O", "Test Value": "262 to 264 °C"}
{"Compound": "CCCn1nc(C(C)C)c(C(=O)OCC)c1Cc1ccc(-c2ccccc2S(=O)(=O)NC(=O)c2ccccc2)cc1", "Test Value": "159 to 160 °C"}
{"Compound": "Nc1nc(N)nc(-c2ccc(NS(=O)(=O)c3ccccc3)cc2)n1", "Test Value": "197 to 199 °C"}

// next entry
What the record says about S=c1[nH]ccn1CCCc1cccs1 : melting point is 94 to 96.5 °C

###

Quantity Measured: melting point

Worked examples follow.
{"Compound": "CCNc1c(C(=O)OCC)c(C)nc2c1nnn2CC", "melting point": "60 to 61 °C"}
{"Compound": "CC(C)(C)[Si](OCc1ccc([N+](=O)[O-])cc1)(c1ccccc1)c1ccccc1", "melting point": "80 to 81 °C"}
{"Compound": "O=c1nc(-c2ccccn2)sc2ccc(Cl)cc12", "melting point": "269 to 270 °C"}

Batch of 8 compounds: report melting point for each.
1. COc1ccc(Nc2cc(-c3ccncc3)nc3ccccc23)cc1Cl
2. CCn1ncc2c3onc(-c4ccc(F)cc4)c3cnc21
3. COc1c(-c2ccc(S(C)(=O)=O)cc2)cnn(-c2ccc(F)c(F)c2)c1=O
4. NC(=O)N1C[C@@H](O)[C@H](Oc2ccc(Cl)cc2)C1 (relative stereo)
5. CCCCCCCNC(=O)Nc1ccccc1C(=O)Nc1c(C(C)C)cccc1C(C)C
6. CCOC(=O)/C=C/c1cn(Cc2cc(OCc3ccccc3)cc(OCc3ccccc3)c2)cc1-c1ccccc1
7. C=CCNC(=O)C1CCc2cc(-c3ccccc3)ccc2O1 (stereo not given)
8. CCC(C)OC(=O)C(Br)=CC1C(C(=O)OC(C#N)c2cccc(Oc3ccccc3)c2)C1(C)C (stereo not given)

**Result**
280 to 282 °C
175 to 176 °C
113 to 115 °C
223 to 225 °C
123 to 125 °C
98 to 99 °C
123 to 124 °C
76 °C

Batch of 5 compounds: report melting point for each.
1. COc1ccc(OC)c2c1CC(C(=O)O)CC2=O (stereo not given)
2. Cc1ccc2c(n1)Oc1ccc(C(C)C(=O)OCC(N)=O)cc1C2 (stereo not given)
3. CCNC(=O)N1C(c2ccccc2C(=O)OCC)=NC(=O)C1(C)C(C)C (stereo not given)
4. O=C1C(=O)c2c(nc3cc(Cl)ccn23)-c2ccccc21
5. CC(=O)c1c(-c2ccnc3ccccc23)[nH]c(-c2ccnc3ccccc23)c1C

**Result**
1. 199 to 201 °C
2. 175 to 177 °C
3. 85 to 87 °C
4. > 300 °C
5. > 260 °C

Where do the numbers come from? From a melting point compilation (Tetko et al.; mined from patent text by program, amines drawn as free bases though some values may be those of a salt).
